Molecular target: Adenosylhomocysteinase (Homo sapiens) (UniProt P23526)
Sequence (P23526 2-432 limits assumed): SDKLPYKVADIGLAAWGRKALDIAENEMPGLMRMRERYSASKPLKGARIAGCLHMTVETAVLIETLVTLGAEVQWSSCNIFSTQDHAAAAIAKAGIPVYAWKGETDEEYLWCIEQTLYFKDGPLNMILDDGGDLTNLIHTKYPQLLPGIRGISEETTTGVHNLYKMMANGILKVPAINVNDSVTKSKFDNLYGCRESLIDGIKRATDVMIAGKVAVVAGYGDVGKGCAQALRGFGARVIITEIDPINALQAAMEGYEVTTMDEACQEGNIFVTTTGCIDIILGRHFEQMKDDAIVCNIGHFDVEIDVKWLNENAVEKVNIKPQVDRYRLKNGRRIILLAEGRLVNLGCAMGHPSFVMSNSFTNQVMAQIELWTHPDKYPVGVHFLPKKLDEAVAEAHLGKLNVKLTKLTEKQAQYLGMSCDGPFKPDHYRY
Test: Inhibition of human S-adenosyl-L-homocysteine hydrolase at 281 uM after 0.5 hrs
Each item that follows carries a reported inhibition.
Measured metric: inhibition (%)

- CCOC(=O)CCC/C=C/[C@H]1O[C@@H](n2cnc3c(N)ncnc32)[C@H](O)[C@@H]1O: 81
- CCOC(=O)CCC/C(F)=C\[C@H]1O[C@@H](n2cnc3c(N)ncnc32)[C@H](O)[C@@H]1O: 14.1
- Nc1ncnc2c1ncn2[C@@H]1O[C@H](/C=C\CCC(=O)O)[C@@H](O)[C@H]1O: 50.5
- Nc1ncnc2c1ncn2[C@@H]1O[C@H](/C=C(/F)CCCC(=O)O)[C@@H](O)[C@H]1O: 15.2
- COC(=O)CC/C=C\[C@H]1O[C@@H](n2cnc3c(N)ncnc32)[C@H](O)[C@@H]1O: 68.1
- Nc1ncnc2c1ncn2[C@@H]1O[C@H](/C=C/CCCC(=O)O)[C@@H](O)[C@H]1O: 28.5
